All values here come from patent US11091450B2.

Experiment: Solubility test of crystal IV in different pH medium solutions
Assay type: physicochemical
Settings: thermodynamic from solid; Water, 37° C., 24 hours, supernatant pH 7.34
measured parameter: solubility at 24 h (µg/mL)
Answers are plain numbers, in µg/mL.

Prompt line: Dear colleague, I am looking for the recorded solubility at 24 h of the following compound: C[C@H](NC(=O)c1cc(-c2ccccc2Cl)on1)C(=O)N[C@@H](CC(=O)O)C(=O)COc1c(F)c(F)cc(F)c1F
Response line: 266

====

Experiment: Solubility test of crystal IV in different pH medium solutions
Assay type: physicochemical
Conditions: 0.01 N HCl buffer, simulated gastric fluid, thermodynamic from solid; 0.01N of HCl Buffer, 37° C., 4 hours, supernatant pH 2.01
measured parameter: solubility at 4 h (µg/mL)
Numbers only, in µg/mL.

Prompt line: Dear colleague, I am looking for the recorded solubility at 4 h of the following molecule: C[C@H](NC(=O)c1cc(-c2ccccc2Cl)on1)C(=O)N[C@@H](CC(=O)O)C(=O)COc1c(F)c(F)cc(F)c1F [crystal IV]
Response line: 5

====

Test: Solubility test of crystal IV in different pH medium solutions
Type: physicochemical
Details: pH 6.7, aqueous buffer, thermodynamic from solid; pH = 6.8 Buffer, 37° C., 24 hours, supernatant pH 6.70
measured parameter: solubility at 24 h (µg/mL)
Numbers only, in µg/mL.

Prompt line: Dear colleague, I am looking for the recorded solubility at 24 h of the following compound: C[C@H](NC(=O)c1cc(-c2ccccc2Cl)on1)C(=O)N[C@@H](CC(=O)O)C(=O)COc1c(F)c(F)cc(F)c1F
Response line: 702

====

Test: Solubility test of crystal IV in different pH medium solutions
Type: physicochemical
Settings: aqueous buffer, thermodynamic from solid; pH = 3.8 Buffer, 37° C., 4 hours, supernatant pH 3.97
measured parameter: solubility at 4 h (µg/mL)
Numbers only, in µg/mL.

Prompt line: Dear colleague, I am looking for the recorded solubility at 4 h of the following molecule: C[C@H](NC(=O)c1cc(-c2ccccc2Cl)on1)C(=O)N[C@@H](CC(=O)O)C(=O)COc1c(F)c(F)cc(F)c1F
Response line: 7

====

Assay: Solubility test of crystal IV in different pH medium solutions
Format: physicochemical
Conditions: aqueous buffer, thermodynamic from solid; pH = 3.8 Buffer, 37° C., 24 hours, supernatant pH 3.99
Experimental: 2 ml of pH medium solutions were transferred into 4 ml glass bottle respectively, and then 8 mg of crystal IV of the compound of formula I-A was added thereto. It was stirred and heated on a magnetic stirrer, and the temperature was kept at 37° C. After 4 hours and 24 hours, 1 mL of sample was taken and centrifuged rapidly, respectively. The pH value of the supernatant was determined, and the supernatant was diluted with diluent. The concentration was determined by HPLC.
measured parameter: solubility at 24 h (µg/mL)
Answers are plain numbers, in µg/mL.

Prompt line: Dear colleague, I am looking for the recorded solubility at 24 h of the following compound: C[C@H](NC(=O)c1cc(-c2ccccc2Cl)on1)C(=O)N[C@@H](CC(=O)O)C(=O)COc1c(F)c(F)cc(F)c1F [crystal IV]
Response line: 8

====

Test: Solubility test of crystal IV in different pH medium solutions
Assay type: physicochemical
Conditions: 0.1 N HCl buffer, simulated gastric fluid, thermodynamic from solid; 0.1N of HCl Buffer, 37° C., 24 hours, supernatant pH 1.11
measured parameter: solubility at 24 h (µg/mL)
One number for each entry, in µg/mL.

Prompt line: Dear colleague, I am looking for the recorded solubility at 24 h of the following compound: C[C@H](NC(=O)c1cc(-c2ccccc2Cl)on1)C(=O)N[C@@H](CC(=O)O)C(=O)COc1c(F)c(F)cc(F)c1F
Response line: 6

====

Test: Solubility test of crystal IV in different pH medium solutions
Type: physicochemical
Settings: aqueous buffer, thermodynamic from solid; pH = 6.8 Buffer, 37° C., 4 hours, supernatant pH 6.71
measured parameter: solubility at 4 h
A bare number is not enough; add the unit after it.

Prompt line: Dear colleague, I am looking for the recorded solubility at 4 h of the following compound: C[C@H](NC(=O)c1cc(-c2ccccc2Cl)on1)C(=O)N[C@@H](CC(=O)O)C(=O)COc1c(F)c(F)cc(F)c1F
Response line: 775 µg/mL

====

Test: Solubility test of crystal IV in different pH medium solutions
Type: physicochemical
Conditions: aqueous buffer, thermodynamic from solid; pH = 5.5 Buffer, 37° C., 4 hours, supernatant pH 5.55
measured parameter: solubility at 4 h (mg/mL)
Answers are plain numbers, in mg/mL.

Prompt line: Dear colleague, I am looking for the recorded solubility at 4 h of the following compound: C[C@H](NC(=O)c1cc(-c2ccccc2Cl)on1)C(=O)N[C@@H](CC(=O)O)C(=O)COc1c(F)c(F)cc(F)c1F
Response line: 0.268

====

Assay: Solubility test of crystal IV in different pH medium solutions
Format: physicochemical
Conditions: 0.1 N HCl buffer, simulated gastric fluid, thermodynamic from solid; 0.1N of HCl Buffer, 37° C., 4 hours, supernatant pH 1.07
measured parameter: solubility at 4 h (µg/mL)
Give bare numbers, in µg/mL.

Prompt line: Dear colleague, I am looking for the recorded solubility at 4 h of the following compound: C[C@H](NC(=O)c1cc(-c2ccccc2Cl)on1)C(=O)N[C@@H](CC(=O)O)C(=O)COc1c(F)c(F)cc(F)c1F
Response line: 5

====

Molecular target: Caspase-3 (Homo sapiens)
Sequence (P42574 29-175 limits assumed): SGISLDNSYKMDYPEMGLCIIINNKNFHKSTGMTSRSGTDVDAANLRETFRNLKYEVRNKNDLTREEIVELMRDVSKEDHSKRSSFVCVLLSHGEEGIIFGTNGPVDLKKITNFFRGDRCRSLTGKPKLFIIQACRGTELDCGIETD
Sequence (P42574 176-277 limits assumed): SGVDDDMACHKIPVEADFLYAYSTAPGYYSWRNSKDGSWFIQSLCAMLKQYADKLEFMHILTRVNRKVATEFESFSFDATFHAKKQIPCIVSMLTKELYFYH
measured parameter: IC50 (nM)
Numbers only, in nM.

Prompt line: Dear colleague, I am looking for the recorded IC50 of the following compound: C[C@H](NC(=O)c1cc(-c2ccccc2Cl)on1)C(=O)N[C@@H](CC(=O)O)C(=O)COc1c(F)c(F)cc(F)c1F
Response line: 13

====

Assay: Solubility test of crystal IV in different pH medium solutions
Format: physicochemical
Settings: aqueous buffer, thermodynamic from solid; pH = 7.4 Buffer, 37° C., 4 hours, supernatant pH 7.28
measured parameter: solubility at 4 h (mg/mL)
One number for each entry, in mg/mL.

Prompt line: Dear colleague, I am looking for the recorded solubility at 4 h of the following compound: C[C@H](NC(=O)c1cc(-c2ccccc2Cl)on1)C(=O)N[C@@H](CC(=O)O)C(=O)COc1c(F)c(F)cc(F)c1F [crystal IV]
Response line: 1.7

====

Assay: Solubility test of crystal IV in different pH medium solutions
Format: physicochemical
Conditions: aqueous buffer, thermodynamic from solid; pH = 4.5 Buffer, 37° C., 4 hours, supernatant pH 4.67
Description: 2 ml of pH medium solutions were transferred into 4 ml glass bottle respectively, and then 8 mg of crystal IV of the compound of formula I-A was added thereto. It was stirred and heated on a magnetic stirrer, and the temperature was kept at 37° C. After 4 hours and 24 hours, 1 mL of sample was taken and centrifuged rapidly, respectively. The pH value of the supernatant was determined, and the supernatant was diluted with diluent. The concentration was determined by HPLC.
measured parameter: solubility at 4 h (µg/mL)
Give bare numbers, in µg/mL.

Prompt line: Dear colleague, I am looking for the recorded solubility at 4 h of the following compound: C[C@H](NC(=O)c1cc(-c2ccccc2Cl)on1)C(=O)N[C@@H](CC(=O)O)C(=O)COc1c(F)c(F)cc(F)c1F
Response line: 16
